Biological target: Neuromedin-K receptor (Homo sapiens, UniProt P29371)
Sequence (P29371 whole entry): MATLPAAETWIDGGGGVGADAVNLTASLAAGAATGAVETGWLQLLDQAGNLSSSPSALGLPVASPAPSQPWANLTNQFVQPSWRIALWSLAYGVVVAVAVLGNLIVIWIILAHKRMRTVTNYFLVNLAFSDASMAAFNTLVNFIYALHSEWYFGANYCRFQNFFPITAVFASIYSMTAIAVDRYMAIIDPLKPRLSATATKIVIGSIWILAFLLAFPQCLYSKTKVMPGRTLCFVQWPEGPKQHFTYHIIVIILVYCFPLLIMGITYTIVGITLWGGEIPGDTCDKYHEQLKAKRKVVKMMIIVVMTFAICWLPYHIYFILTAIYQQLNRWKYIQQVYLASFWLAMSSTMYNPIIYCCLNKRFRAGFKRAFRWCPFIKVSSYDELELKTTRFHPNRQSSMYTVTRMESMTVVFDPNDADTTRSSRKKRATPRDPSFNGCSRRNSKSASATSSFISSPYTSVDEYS
Assay: Binding Competition Assay: NK3: The ability of compounds of the invention to inhibit the binding of the NK-3 receptor selective antagonist 3H-SB222200 was assessed by an in vitro radioligand binding assay. Membranes were prepared from Chinese hamster ovary recombinant cells stably expressing the human NK3 receptor. The membranes were incubated with 5 nM 3H-SB222200 (ARC) in a HEPES 25 mM/NaCl 0.1M/CaCl2 1 mM/MgCl2 5 Mm/BSA 0.5%/Saponin 10 μg/ml buffer at pH 7.4 and various concentrations of compounds of the invention. The amount of 3H-SB222200 bound to the receptor was determined after filtration by the quantification of membrane associated radioactivity using the TopCount-NXT reader (Packard).
quantity-kind: Ki (µM)
// units = µM; emit number, no label

-- ask Which Ki reading was recorded for the compound Cc1coc(-c2nnc3n2CCN[C@@H]3C)n1 ?
-- reply 0.051
